# pIC50 values compiled below
# target_or_system: Acetylcholinesterase (Electrophorus electricus)
# Sequence (O42275 whole entry): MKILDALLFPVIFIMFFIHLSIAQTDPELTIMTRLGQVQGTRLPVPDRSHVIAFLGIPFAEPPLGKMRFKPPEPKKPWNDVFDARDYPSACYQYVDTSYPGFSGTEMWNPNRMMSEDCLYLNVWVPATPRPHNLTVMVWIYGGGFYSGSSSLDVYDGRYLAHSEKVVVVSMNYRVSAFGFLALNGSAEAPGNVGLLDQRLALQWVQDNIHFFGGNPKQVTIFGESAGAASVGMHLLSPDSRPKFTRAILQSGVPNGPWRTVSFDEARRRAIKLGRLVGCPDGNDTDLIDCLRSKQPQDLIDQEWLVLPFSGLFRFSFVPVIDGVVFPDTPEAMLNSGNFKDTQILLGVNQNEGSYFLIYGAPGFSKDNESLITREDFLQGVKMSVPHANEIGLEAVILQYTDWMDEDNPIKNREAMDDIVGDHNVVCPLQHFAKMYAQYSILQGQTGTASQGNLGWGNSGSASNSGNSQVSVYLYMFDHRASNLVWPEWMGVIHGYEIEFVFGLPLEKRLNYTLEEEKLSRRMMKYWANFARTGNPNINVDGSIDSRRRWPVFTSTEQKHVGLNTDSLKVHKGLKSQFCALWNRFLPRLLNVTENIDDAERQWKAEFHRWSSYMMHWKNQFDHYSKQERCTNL
pIC50: −log10 of the molar value.

compound | target_or_system | pIC50
Nc1ccc2oc(N3CCN(CCc4ccccc4)CC3)nc2c1 | Acetylcholinesterase (Electrophorus electricus) | 6.41
Nc1ccc2oc(N3CCN(C(=O)c4cccc(Cl)c4)CC3)nc2c1 | Acetylcholinesterase (Electrophorus electricus) | 6.62
Nc1ccc2oc(N3CCN(C(=O)c4ccc(Cl)cc4)CC3)nc2c1 | Acetylcholinesterase (Electrophorus electricus) | 6.96
Nc1ccc2oc(N3CCOCC3)nc2c1 | Acetylcholinesterase (Electrophorus electricus) | 5.15
COc1cc2c(cc1OC)C(=O)C(Cc1cc[n+](Cc3ccccc3)cc1Br)C2 (stereo unspecified) | Acetylcholinesterase (Electrophorus electricus) | 9.44
C#CCN(Cc1ccc2cccc(O)c2n1)C(C#N)CCC1CCN(Cc2ccccc2)CC1 (stereo unspecified) | Acetylcholinesterase (Electrophorus electricus) | 7.54

====

# run_description: Permeability of the compound in pH 7.4 PBS buffer incubated for 18 hrs by PAMPA-BBB assay

smiles_record | unit_string | Papp at 18 h
Nc1ccc2oc(NC3CCN(Cc4ccccc4)CC3)nc2c1 | ×10⁻⁶ cm/s | 9.47
Nc1ccc2oc(N3CCN(c4ccc(F)cc4)CC3)nc2c1 | ×10⁻⁶ cm/s | 10.7
Cc1ccc(CN2CCN(c3nc4cc(N)ccc4o3)CC2)cc1 | ×10⁻⁶ cm/s | 10.6
Nc1ccc2oc(N3CCN(C(=O)c4cccc(Br)c4)CC3)nc2c1 | ×10⁻⁶ cm/s | 10.5
Nc1ccc2oc(N3CCN(C(=O)c4ccccc4Br)CC3)nc2c1 | ×10⁻⁶ cm/s | 10.6
Nc1ccc2oc(N3CCN(c4ccccc4)CC3)nc2c1 | ×10⁻⁶ cm/s | 10.3
Nc1ccc2oc(N3CCN(C(=O)c4ccc(Cl)cc4)CC3)nc2c1 | ×10⁻⁶ cm/s | 10.4
COc1ccc(N2CCN(c3nc4cc(N)ccc4o3)CC2)cc1 | ×10⁻⁶ cm/s | 10.5
Nc1ccc2oc(N3CCN(C(=O)c4ccccc4F)CC3)nc2c1 | ×10⁻⁶ cm/s | 9.55
Nc1ccc2oc(N3CCN(Cc4ccccc4)CC3)nc2c1 | ×10⁻⁶ cm/s | 10.2
Nc1ccc2oc(N3CCN(C(=O)c4cccc(F)c4)CC3)nc2c1 | ×10⁻⁶ cm/s | 9.51

====

# run_description: Selectivity index, ratio of IC50 for equine serum BuChE to IC50 for electric eel AChE
Decision: Ratio IC50 >= 8 yields rule met, all other cases yield rule not met.

smiles_record | assigned_category
Nc1ccc2oc(N3CCN(C(=O)c4cccc(F)c4)CC3)nc2c1 | rule met
Nc1ccc2oc(N3CCN(C(=O)c4ccc(F)cc4)CC3)nc2c1 | rule met
Nc1ccc2oc(N3CCN(C(=O)c4ccccc4Cl)CC3)nc2c1 | rule met
Nc1ccc2oc(N3CCN(C(=O)c4ccc(Cl)cc4)CC3)nc2c1 | rule met
COc1cccc(C(=O)N2CCN(c3nc4cc(N)ccc4o3)CC2)c1 | rule met
COc1ccc(C(=O)N2CCN(c3nc4cc(N)ccc4o3)CC2)cc1 | rule met
Nc1ccc2oc(N3CCN(c4ccccn4)CC3)nc2c1 | rule not met
Cc1ccc(CN2CCN(c3nc4cc(N)ccc4o3)CC2)cc1 | rule not met
Nc1ccc2oc(N3CCN(Cc4ccc(F)cc4)CC3)nc2c1 | rule not met
Nc1ccc2oc(N3CCN(CCc4ccccc4)CC3)nc2c1 | rule not met
